- System: morningglory (Ipomoea coccinea)
- procedure.summary: Test B pre/postemergence
- Format: in vivo
- recorded.conditions: Ipomoea, pre-emergence, Preemergence, 62 g ai/ha; scale 0 to 100, 0 no effect, 100 complete control; read-out: Plant response rating, Morningglory
measure.name: pest or weed control at 62 g/ha (%)

{"columns": ["compound", "reported.measurement"],
 "data": [
  ["Nc1nc(-c2ccc(Cl)cc2)nc(C(=O)O)c1Cl [Compound 65]", 30],
  ["Nc1nc(C2CC2)nc(C(=O)OCc2ccccc2)c1Cl [Compound 78]", 80],
  ["Nc1nc(C2CC2)nc(C(=O)[O-])c1Cl.[Na+] [Compound 77, monosodium salt]", 100],
  ["CNc1nc(C2CC2)nc(C(=O)OC)c1Cl [Compound 79]", 70]
]}

====

- Tested on: Surinam grass (Brachiaria decumbens)
- procedure.summary: Test C pre/postemergence
- Type: in vivo
- recorded.conditions: Postemergence, 62 g ai/ha
Examples of compounds with documented Plant response rating (scale of 0 to 100), Surinam Grass follow.
measure.name: Plant response rating (scale of 0 to 100), Surinam Grass

{"columns": ["smiles.repr", "reported.measurement"],
 "data": [
  ["Nc1nc(-c2ccc(Br)cc2)nc(C(=O)O)c1Br", 65],
  ["CCCCOC(=O)c1nc(C2CC2)nc(N)c1Cl", 95],
  ["Nc1nc(-c2ccc(Cl)cc2)nc(C(=O)O)c1Br", 60],
  ["Nc1nc(-c2ccc(Cl)cc2)nc(C(=O)[O-])c1Cl.[Na+]", 80]
]}

====

- Tested on: giant foxtail (Setaria faberi)
- procedure.summary: Test A pre/postemergence
- Assay type: in vivo
- recorded.conditions: Postemergence, 125 g ai/ha; 0 to 100 scale (0 no effect, 100 complete control)

{"columns": ["molecule", "Plant response rating, Foxtail, Giant"],
 "data": [
  ["Nc1nc(-c2ccc(Cl)cc2)nc(C(=O)[O-])c1Cl.[Na+]", 80],
  ["CCOC(=O)c1nc(-c2ccc(OC(F)(F)F)cc2)nc(N)c1Cl", 0],
  ["CCOC(=O)c1nc(-c2ccc(I)cc2)nc(N)c1Cl", 15],
  ["CNc1nc(-c2ccc(Cl)cc2)nc(C(=O)OC)c1Cl", 0],
  ["CCOC(=O)c1nc(-c2cccc(Cl)c2)nc(N)c1Cl", 0],
  ["Cc1ccc(-c2nc(N)c(Cl)c(C(=O)O)n2)cc1F", 0],
  ["COC(=O)c1nc(-c2ccc(Cl)cc2)nc(N)c1Br", 0],
  ["CCOC(=O)c1nc(-c2ccc(OC)cc2)nc(N)c1Cl", 0],
  ["Nc1nc(-c2ccc(Cl)cc2)nc(C(=O)OCc2ccccc2)c1Cl", 0],
  ["COC(=O)COC(=O)c1nc(C2CC2)nc(N)c1Cl", 45],
  ["CC1(C)OCC(COC(=O)c2nc(C3CC3)nc(N)c2Cl)O1 (centres unmarked)", 60],
  ["Nc1nc(C2CC2)nc(C(=O)OCC2CO2)c1Cl (centres unmarked)", 85],
  ["CC(C)c1nc(N)c(Cl)c(C(=O)[O-])n1.[Na+]", 0],
  ["Nc1nc(-c2ccc(Br)cc2)nc(C(=O)O)c1Br", 75],
  ["Nc1nc(C2CC2)nc(C(=O)Oc2ccc(Cl)cc2)c1Cl", 20],
  ["CCOC(=O)c1nc(-c2ccc(Cl)cc2)nc(N)c1I", 0],
  ["CCOC(=O)c1nc(-c2ccc(Cl)cc2F)nc(N)c1Br", 0],
  ["CCCCOCCOC(=O)c1nc(C2CC2)nc(N)c1Cl", 80],
  ["COC(=O)c1nc(-c2ccc(S(C)(=O)=O)cc2)nc(N)c1Cl", 0],
  ["CCOC(=O)c1nc(-c2cccc(C(F)(F)F)c2)nc(N)c1Cl", 0]
]}

====

- Test system: pigweed (Amaranthus retroflexus)
- procedure.summary: Test C pre/postemergence
- Assay type: in vivo
- recorded.conditions: Amaranthus retroflexus, post-emergence, Postemergence, 62 g ai/ha; scale 0 to 100 (0 no effect, 100 complete control); read-out: Pigweed plant response rating
I'd appreciate it if you marked entries y when pest or weed control at 62 g/ha is lower than 80% and n when it is not.

{"columns": ["smiles.repr", "target.of.assay", "discrete.label"],
 "data": [
  ["CCOC(=O)c1nc(-c2ccc(Cl)cc2)nc(N)c1Cl", "pigweed (Amaranthus retroflexus)", "n"],
  ["COC(=O)c1nc(C(C)C)nc(N)c1Br", "pigweed (Amaranthus retroflexus)", "y"],
  ["CNc1nc(C2CC2)nc(C(=O)OC)c1Br", "pigweed (Amaranthus retroflexus)", "n"],
  ["COC(=O)c1nc(C2CC2)nc(N)c1I", "pigweed (Amaranthus retroflexus)", "y"],
  ["CCOC(=O)c1nc(C2CC2)nc(NN)c1Br", "pigweed (Amaranthus retroflexus)", "y"]
]}

====

- Tested on: chickweed (Stellaria media)
- procedure.summary: Test C postemergence
- Assay type: in vivo
- recorded.conditions: Stellaria media, post-emergence, 31 g ai/ha, read-out: Plant response rating (scale of 0 to 100), Chickweed
Examples of molecules with documented pest or weed control at 31 g/ha follow.
measure.name: pest or weed control at 31 g/ha (%)

{"columns": ["molecule", "target.of.assay", "units.symbol", "reported.measurement"],
 "data": [
  ["COC(=O)c1nc(C(C)C)nc(N)c1Br [Compound 3]", "chickweed (Stellaria media)", "%", 0],
  ["Nc1nc(C2CC2)nc(C(=O)O)c1Cl [Compound 135]", "chickweed (Stellaria media)", "%", 15],
  ["CCOC(=O)c1nc(-c2ccc(Br)cc2)nc(N)c1Cl [Compound 94]", "chickweed (Stellaria media)", "%", 45],
  ["Nc1nc(C2CC2)nc(C(=O)OCc2ccccc2)c1Cl [Compound 78]", "chickweed (Stellaria media)", "%", 0],
  ["Nc1nc(-c2ccc(Cl)cc2)nc(C(=O)O)c1Cl [Compound 65]", "chickweed (Stellaria media)", "%", 60]
]}

====

- System: corn (Zea mays)
- procedure.summary: Test C pre/postemergence
- Assay type: in vivo
- recorded.conditions: Postemergence, 62 g ai/ha; scale 0 to 100 (0 no effect, 100 complete control)

{"columns": ["compound", "Corn plant response rating"],
 "data": [
  ["COCc1nc(C2CC2)nc(N)c1Br", 0],
  ["CCCOC(=O)c1nc(C2CC2)nc(N)c1Br", 15],
  ["CCOC(=O)C(OC(C)=O)c1nc(C2CC2)nc(N)c1Br (stereo not drawn)", 0],
  ["COC(=O)c1nc(C2CC2)nc(N=CN(C)C)c1Br", 0],
  ["COC(=O)CNc1nc(C2CC2)nc(C(=O)OC)c1Br", 0],
  ["CC(C)COC(=O)c1nc(C2CC2)nc(N)c1Br", 0]
]}

====

- System: crabgrass (Digitaria sanguinalis)
- procedure.summary: Test C pre/postemergence
- Type: in vivo
- recorded.conditions: Postemergence, 250 g ai/ha; scale 0 to 100
Examples of molecules with documented Plant response rating, Crabgrass follow.
measure.name: Plant response rating, Crabgrass

{"columns": ["smiles.repr", "reported.measurement"],
 "data": [
  ["CCCOC(=O)c1nc(C2CC2)nc(N)c1Br", 65],
  ["CCOC(=O)c1nc(-c2ccc(Cl)cc2)nc(N)c1Br", 40],
  ["CC(C)COC(=O)c1nc(C2CC2)nc(N)c1Br", 65],
  ["CCCCOC(=O)c1nc(C2CC2)nc(N)c1Br", 75]
]}

====

- Tested on: common ragweed (Ambrosia elatior)
- procedure.summary: Test C pre/postemergence
- Assay type: in vivo
- recorded.conditions: Preemergence, 125 g ai/ha; scale 0 to 100

{"columns": ["compound", "Plant response rating, Ragweed"],
 "data": [
  ["COC(=O)CNc1nc(C2CC2)nc(C(=O)OC)c1Br", 0],
  ["CCOC(=O)C(Cl)c1nc(C2CC2)nc(N)c1Br (centres unmarked)", 60],
  ["CN(C)N=Cc1nc(C2CC2)nc(N)c1Br", 85],
  ["Nc1nc(C2CC2)nc(C=NO)c1Br", 65],
  ["CCOC(=O)C(OC(C)=O)c1nc(C2CC2)nc(N)c1Br (centres unmarked)", 65]
]}

====

- Tested on: soybean (Glycine max)
- procedure.summary: Test C pre/postemergence
- Format: in vivo
- recorded.conditions: Preemergence, 62 g ai/ha; scale 0 to 100, 0 no effect, 100 complete control
Examples of compounds with documented Plant response rating, Soybean follow.

{"columns": ["compound", "Plant response rating, Soybean"],
 "data": [
  ["COC(=O)CNc1nc(C2CC2)nc(C(=O)OC)c1Br [Compound 10]", 0],
  ["COC(=O)c1nc(C2CC2)nc(N=CN(C)C)c1Br [Compound 19]", 85],
  ["COC(=O)c1nc(C2CC2C)nc(N)c1Br (centres unmarked) [Compound 28]", 0],
  ["CCOC(=O)C(Cl)c1nc(C2CC2)nc(N)c1Br (centres unmarked) [Compound 31]", 5],
  ["CCCCOC(=O)c1nc(C2CC2)nc(N)c1Br [Compound 16]", 85]
]}
